Experimental readout: melting point

Molecule	melting point
Cc1nnc(CNC(=O)CN2C(=O)c3ccccc3C2=O)n1-c1ccc(Cl)cc1C(=O)c1ccccc1	251 to 253 °C
Cc1cc(=O)c(-c2ccc(Cl)c(Cl)c2)c(-c2ccc(S(N)(=O)=O)cc2)o1	128 °C
CCNC(=S)Nc1ccccc1N1CCOCC1	118 to 120 °C
CN1C(=O)CC[C@]2(C)c3ccc(-c4ccc([N+](=O)[O-])cn4)cc3CC[C@@H]12	70 to 80 °C
C=CCc1cc(C(=O)OC)ccc1OCCCCCOc1ccc2c(=O)cc(C(=O)OC)oc2c1CCC	87 to 88 °C
Cc1ccc(S(=O)(=O)NC(=O)/C=C/c2c(C)nn(C)c2-n2ccc3cccnc32)cc1	237 to 238 °C
COC(=O)CC1Cc2ccc(O)cc2NC1=O (stereo not given)	178 to 180 °C
COC(=O)Cc1nsc(NC(=O)OC)n1	167 to 169 °C

Would you kindly share the measured melting point for `CC(=NO)c1ccc(OCc2ccccc2)c(CCCc2ccc(C(=O)NCCO)cc2)c1` ?
131 to 132 °C

Field entry: `ON=C(c1ccccc1)c1ccc(C(=NO)c2ccc(C(=NO)c3ccccc3)cc2)cc1`
224 to 225 °C

Field entry: `COC(=O)CCn1c(C)c(Cn2ccnc2)c2c(CCC(=O)O)cccc21`
136 to 138 °C

Field entry: `COc1ccc(C=C2CCN(C(=O)c3nc4ccc(O)cc4[nH]3)CC2)cc1`
208 °C

Field entry: `COc1cc(NC2CCCC2)n2nc(-c3ccc(F)cc3)c(-c3ccnc(NC4CCCC4)n3)c2c1`
167 to 169 °C
